Record: log10 IC50 reported on BTK (Homo sapiens, UniProt Q06187).
Sequence (Q06187 whole entry): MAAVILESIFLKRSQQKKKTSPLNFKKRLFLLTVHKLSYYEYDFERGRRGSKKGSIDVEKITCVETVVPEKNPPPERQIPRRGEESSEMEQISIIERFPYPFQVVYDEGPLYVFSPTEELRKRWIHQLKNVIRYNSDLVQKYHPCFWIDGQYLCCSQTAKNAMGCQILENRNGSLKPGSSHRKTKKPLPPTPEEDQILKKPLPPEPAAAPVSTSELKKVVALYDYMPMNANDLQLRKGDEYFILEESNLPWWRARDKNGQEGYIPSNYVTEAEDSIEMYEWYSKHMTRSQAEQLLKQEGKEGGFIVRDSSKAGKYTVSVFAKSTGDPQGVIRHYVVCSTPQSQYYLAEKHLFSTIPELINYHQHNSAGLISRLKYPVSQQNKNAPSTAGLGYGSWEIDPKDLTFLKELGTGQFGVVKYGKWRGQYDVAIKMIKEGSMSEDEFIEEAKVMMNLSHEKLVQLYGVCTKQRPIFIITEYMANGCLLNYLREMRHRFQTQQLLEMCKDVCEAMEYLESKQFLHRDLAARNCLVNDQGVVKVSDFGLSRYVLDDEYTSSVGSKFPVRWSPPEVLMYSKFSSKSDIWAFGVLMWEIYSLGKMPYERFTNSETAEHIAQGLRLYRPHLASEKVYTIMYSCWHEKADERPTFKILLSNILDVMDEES
READOUT_NAME: log10 IC50 (log10 of the value in nM)

{"MOLECULE": "C=CC(=O)N1CCC[C@@H](n2nc(-c3ccc(C(=O)Nc4ccccc4)cc3)c3c(N)ncc(-c4cnc(C)s4)c32)C1", "log10 IC50": 0.79}
{"MOLECULE": "C=CC(=O)N1CCCC(n2nc(-c3ccc(Oc4ccccc4)cc3)c3c(N)nccc32)C1 (stereo not drawn)", "log10 IC50": 0.15}
{"MOLECULE": "C=CC(=O)N1CCC[C@@H](n2nc(-c3ccc(C(=O)N(C(=O)C=C)c4cc(F)ccn4)cc3)c3c(N)nccc32)C1", "log10 IC50": 1.82}
{"MOLECULE": "C=CC(=O)N1CCC[C@@H](n2nc(-c3ccc(Oc4ccccc4)cc3)c3c(N)ncc(I)c32)C1", "log10 IC50": 0.00}
{"MOLECULE": "C=CC(=O)N1CCC[C@@H](n2nc(-c3ccc(C(=O)Nc4ccccc4)cc3)c3c(N)ncc(-c4cnn(C5CCOCC5)c4)c32)C1", "log10 IC50": 0.36}
{"MOLECULE": "C=CC(=O)N1CCC[C@@H](n2nc(-c3ccc(C(=O)Nc4ccccn4)cc3Cl)c3c(N)ncc(Cl)c32)C1", "log10 IC50": 0.94}
{"MOLECULE": "C=CC(=O)N1CC(n2nc(-c3ccc(C(=O)Nc4ccccn4)cc3Cl)c3c(N)nccc32)C1", "log10 IC50": 0.49}
{"MOLECULE": "C=CC(=O)N1CCC[C@@H](n2nc(Br)c3c(N)nccc32)C1", "log10 IC50": 0.80}
{"MOLECULE": "C=CC(=O)N1CCC[C@@H](n2nc(C(=O)Nc3nc4ccccc4o3)c3c(N)nccc32)C1", "log10 IC50": 0.70}
{"MOLECULE": "C=CC(=O)N1CCC[C@@H](n2nc(-c3ccc(C(=O)Nc4ccccn4)cc3F)c3c(N)ncc(I)c32)C1", "log10 IC50": 0.11}
{"MOLECULE": "C#CC(=O)N1CCC(n2nc(-c3ccc(Oc4ccccc4)cc3)c3c(N)nccc32)CC1", "log10 IC50": 0.74}
{"MOLECULE": "C=CC(=O)N1CCC[C@@H](n2nc(-c3ccc(C(=O)Nc4ccccn4)cc3F)c3c(N)nccc32)C1", "log10 IC50": 0.43}
{"MOLECULE": "C=CC(=O)N1CCC[C@@H](n2nc(-c3ccc(C(=O)Nc4ccccc4)cc3)c3c(N)ncc(-c4cnn(CCN5CCCC5)c4)c32)C1", "log10 IC50": 0.48}
{"MOLECULE": "C=C(C)C(=O)N1CCC[C@@H](n2nc(-c3ccc(C(=O)Nc4ccccn4)cc3F)c3c(N)ncc(Cl)c32)C1", "log10 IC50": 0.81}
{"MOLECULE": "C=C(C)C(=O)N1CCC[C@@H](n2nc(-c3ccc(C(=O)Nc4ccccn4)cc3F)c3c(N)nccc32)C1", "log10 IC50": 1.89}
